- subject.of.test: T1, cynomolgus EpCAM protein (cynomolgus monkey)
- T1 construct: biotinylated in the Octet assays; also called cy EpCAM; cynomolgus monkey EpCAM
- test: colorimetric ELISA
assay.endpoint: ELISA absorbance (absorbance)
# number only, unit absorbance dropped from output

Llama anti-EpCAM single domain antibody EPL136 (VHH, E. coli periplasmic extract) VHH: QVQLQESGGGLVQPGGSLRLSCAASGDTFLRYAMGWFRQAPGKEREFVAAITWNGGNTDYAGSLKGRFTISRDNTKNTVYLQMNSLKPEDTAVYYCAADLTFGLASSHYQYDYWGQGTQVTVSS
1.3
Llama anti-EpCAM single domain antibody EPL156 (VHH, E. coli periplasmic extract) VHH: QVQLQESGGGLVQPGASLRVSCAASEYILSMYRMAWYRQAPGKVRELVADMSSGGTTNYADFVKGRFTISRDNDRNTVYLQMNRLQPEDTAAYYCNVAGRTGPPSYDAFNNWGQGTQVTVSS
4
Llama anti-EpCAM single domain antibody EPL152 (VHH, E. coli periplasmic extract) VHH: QVQLQESGGGLVQAGGSLRLSCVHSGSIFRASTMAWYRQAPGKQRELVAQIMSGGGTNYAGSVKGRFTISRDNANNTVYLQMNSLKPEDTAVYYCNAAQITSWGPKVYWGQGTQVTVSS
2.8
Llama anti-EpCAM single domain antibody EPL86 (VHH, E. coli periplasmic extract) VHH: QVQLQESGGGLVQPGGSLRLSCAASGFTFSDWAMSWVRQAPGKGLEWVSGIHYGDHTTHYADFVKGRFTISRDDAKNTLYLQMNSLKPEDTAVYYCARGSTKGQGTQVTVSS
3
Llama anti-EpCAM single domain antibody EPL126 (VHH, E. coli periplasmic extract) VHH: QVQLQESGGGLVQAGGSLRLSCAASGFIFRAASMGWYRQSPGNERELVATINSGGFTNYADSVKGRFTISRDNAKNTGYLQMNSLKPEDTAVYFCAATFLRSDGQPPIWGQGTQVTVSS
2.8

Problem: Reported ELISA absorbance, binder Llama anti-EpCAM single domain antibody EPL120 (VHH, E. coli periplasmic extract) VHH: QVQLQESGGGLVQAGGSLRLSCAASGFIFRAASISWYRQSPGNERELVATINSGGFTNYADSVLGRFTISRDNAKNTGYLQMNSLKPEDTAVYFCAATFLRSDGQPPIWGQGTQVTVSS : ____
Result: 2.3

Problem: Reported ELISA absorbance, binder Llama anti-EpCAM single domain antibody EPL153 (VHH, E. coli periplasmic extract) VHH: QVQLQESGGGLVQPGGSLRLSCAASGFTFSDWAMSWVRQAPGKGLEWVSSIHYGDHTTHYADFVKGRFTISRDDAKNTLYLQMNSLKPEDTAVYYCEKGTTRGQGTQVTVSS : ____
Result: 2.2

Problem: Reported ELISA absorbance, binder Llama anti-EpCAM single domain antibody EPL138 (VHH, E. coli periplasmic extract) VHH: QVQLQESGGGLVQAGGSLRLSCAASGFIFRAASMDWYRQFPGNERESIATISSGGFTNYADSVKGRFTISRDNAKNTVYLQMNSLKPEDTAVYFCGATFLRSDGHHTINGQGTQVTVSS : ____
Result: 2.7
